Test system: OVCAR-3 ovarian
protocol.notes: NCI-60 one-dose screen, 48 h
cond: 10 µM unless noted
About 83,000 compounds went through this panel and 20% of them were active in at least one assay; those are over-represented in the sample as a whole. The source made the active and inactive calls. The calls were made as follows: active = growth percent below 10; inactive = the rest.
Returns: one label drawn from active, inactive

Known results for compounds:
compound	qualitative.label
Nc1nc2c(c3cnccc13)C(c1cccc(Cl)c1)Cc1cnccc1-2 (configuration not stated)	inactive
CC(=O)c1ccc2c(c1)c1ccccc1n2C	inactive
CCOC(=O)C1=C(c2ccccc2)NC(=O)NC1CN1C(=O)c2ccccc2C1=O (configuration not stated)	inactive
Nc1cc2c(cc1Br)[nH]c(=O)c1ccccc12	active
COc1ccccc1CNCCCN1C(=O)c2ccc3c4c(ccc(c24)C1=O)C(=O)N(CCCNCc1ccccc1OC)C3=O	active
Cc1ccc(S(=O)(=O)N/N=C2\CC3CCC2C3)cc1 (configuration not stated)	inactive

Called result for "Oc1ccc(N=Nc2ccc(N=Nc3ccccc3)cc2)cc1"
inactive

Called result for "Cc1c(CN(C)C)cc(C(C)C)cc1C(C)C"
inactive

Called result for COC(=O)C(C(=O)OC)C(Br)C(Br)C(Br)c1ccccc1 (configuration not stated)
inactive

* * *

System: NCI-H226 lung
protocol.notes: NCI-60 one-dose screen, 48 h (100 = growth as untreated, 0 = no growth, -100 = all killed)
cond: 10 µM unless noted
About 83,000 compounds went through this panel and 20% of them were active in at least one assay; those are over-represented in the sample as a whole. Calls of active or inactive are those of the source. The calls were made as follows: active = growth percent below 10; inactive = the rest.
readout.name: growth

compound	growth
N#CCc1ncc(-c2ccc(C(F)(F)F)cc2)c(NC2CCCCCC2)n1	55.3% [100 µM] (inactive)

Entry under test: "N=c1c2c(=O)n3c(nc2nc2sc4ccc(Cl)cc4n12)-c1ccccc1Sc1ccccc1-3" . Its growth was 29.1% (inactive)

Entry under test: "c1cc(C2CCCCC2)ccc1OCCCCCCN1CCNCC1" . Its growth was 81.9% (inactive)

Entry under test: "O=C(O)COc1ccc([N+](=O)[O-])cc1Cl" . Its growth was 108% (inactive)

* * *

Tested on: OVCAR-8 ovarian
protocol.notes: NCI-60 one-dose screen, 48 h
cond: 10 µM unless noted
About 83,000 compounds went through this panel and 20% of them were active in at least one assay; those are over-represented in the sample as a whole. Active and inactive are the calls of the source. Rule for the calls: active = growth percent below 10; inactive = the rest.
Returns: one label drawn from active, inactive

Known results for compounds:
compound	qualitative.label
Clc1ccc(I)c2ccccc12	inactive
CC(O)CCC(C)[N+](=O)[O-] (centres undefined)	inactive
CC1=C(C)C(=O)C(C(C)C2=C(C)C(=O)C(C)=C(C)C2=O)=C(C)C1=O	inactive
S=C(N/N=C/c1cc(Cl)cc(Cl)c1)NC12CC3CC(CC(C3)C1)C2	inactive
CCOC(=O)c1cc(-c2ccc(OC)cc2)[nH]c1NNC(=O)CCOC	inactive

Called result for "COc1nc(OC)nc(-c2cc(-c3cc(OC)c(OC)c(OC)c3)no2)n1"
inactive

Called result for "O=C(Nn1cnc2ccccc21)N1CCCC1"
inactive

Called result for "COC(=O)CC(=O)C(=O)OC"
inactive

Called result for "CC(=O)NCCN"
inactive

Called result for CCOC(=O)C(C)C(C)(O)c1ccccc1 (centres undefined)
inactive

Called result for "COc1ccc(-c2nc(SCC(C)C)nc(Nc3ccccc3)c2C#N)cc1"
inactive

Called result for "O=CN/N=C/c1ccc(Cl)c([N+](=O)[O-])c1"
inactive

Called result for "CCCCCCCCCCCCCCCCCC(=O)Nc1ccc(O)cc1"
inactive

Called result for Nc1nc2c(c3cnccc13)C(c1ccc(Cl)c(Cl)c1)Cc1cnccc1-2 (centres undefined)
active

Called result for "COc1ccc2c(c1)/C(=C/c1c(-c3cc(OC)c(OC)c(OC)c3)nc3sccn13)C(=O)N2"
inactive

Called result for "COc1cc2ncnc(-n3ncc4cc(NC(=O)Nc5ccc(Cl)c(C)c5)ccc43)c2cc1OC"
inactive

Called result for "O=C1/C(=N\c2cc(=O)[nH]n2S(=O)(=O)c2ccccc2)Nc2ccccc21"
inactive

Called result for "COc1ccc2cnc(N)c(C#Cc3cc(C(=O)Nc4ccc(CN5CCN(C)CC5)c(C(F)(F)F)c4)cnc3C)c2c1"
inactive

Called result for CCN(CC)C(=O)C1(C)CCCC2(C)c3cc(OC(C)=O)ccc3CCC12 (centres undefined)
inactive

Called result for "CCCCCCCCCCCCCCCC[n+]1cccc(C#N)c1"
inactive

* * *

Test system: SN12C renal
protocol.notes: NCI-60 one-dose screen, 48 h
cond: 10 µM unless noted
About 83,000 compounds went through this panel and 20% of them were active in at least one assay; those are over-represented in the sample as a whole. Calls of active or inactive are those of the source. The calls were made as follows: active = growth percent below 10; inactive = the rest.
Returns: one label drawn from label 1 = active, label 0 = inactive

Known results for compounds:
compound	qualitative.label
CCCCCCCCCCCCCCCCNC(=S)N/N=C/c1ccc(O)cc1O	label 0
CC1(C)C(O)NC(Cl)=C(C#N)C1(C#N)C#N (stereo not given)	label 0
O=C1C(Br)=CC2C1C1C3CCC3C2(Br)C12OCCO2 (stereo not given)	label 0
COc1ccc(OC)c(Cn2cc3c(c2-c2ccccc2)CCc2cnoc2-3)c1	label 0
COc1cc(/C=C/C(=O)/C=C(/C=C/c2ccc(OC(C)=O)c(OC)c2)OB(F)F)ccc1OC(C)=O	label 0
Cc1ncc(C(=O)Nc2ccc(CN3CCN(C)CC3)c(C(F)(F)F)c2)cc1C#Cc1cnc(NC2CC2)c2ncccc12	label 1
Cc1ncc(C(=O)Nc2ccc(CN3CCN(C)CC3)c(C(F)(F)F)c2)cc1C#Cc1c(N)ncc2ccccc12	label 1
CC([C@H]1CCC2C3CCC4C[C@@H](N)CC[C@]4(C)C3CC[C@@]21C)N(C)C (stereo not given in full)	label 0

Called result for "Ic1ccc(SSc2ccc(I)cc2)cc1"
label 0

Called result for "O=C1N/C(=N\c2nnc(-c3ccc(O)cc3)s2)S/C1=C\c1ccccc1O"
label 0

* * *

System: SNB-19 CNS
protocol.notes: NCI-60 one-dose screen, 48 h (100 = growth as untreated, 0 = no growth, -100 = all killed)
cond: 10 µM unless noted
About 83,000 compounds went through this panel and 20% of them were active in at least one assay; those are over-represented in the sample as a whole.
readout.name: growth (%)
// return numeric value only (unit: %, not printed)

molecule	growth, %
CCCCN(CCCC)CCCNc1c2c(nc3ccc(Cl)cc13)CCCC2	102
Cc1c(CN(C)C)cc(C(C)C)cc1C(C)C	102
Oc1ccccc1/C=N/N=C\c1ccccc1Cl	91.5
CCCC[N+](C)(N)CCCC	104

Entry under test: "O=C(N/N=C\c1ccc(-c2ccc(Br)cc2)o1)c1cc2oc(-c3cccc(C(F)(F)F)c3)cc2[nH]1" . Its growth was 97.9

Entry under test: "COc1ccccc1C(=O)Nc1cccc(-c2cc(=O)c3c(OC)c(OC)c(OC)cc3o2)c1" . Its growth was 36.2

Entry under test: "C[C@]12CC[C@H]3[C@@H](CC[C@H]4C[C@@H](O)CC[C@@]43C)[C@@H]1CC(=O)C2" . Its growth was 100

Entry under test: "CCS(=O)(=O)OCCO[C@H]1Cc2cc3ccc(=O)oc3cc2OC1(C)C" . Its growth was 105

Entry under test: "C[C@@H](c1ccc2c(c1)[nH]c1ccc(Cl)cc12)c1nc2ccc(Cl)cc2[nH]1" . Its growth was 91.7

Entry under test: COC(=O)C1CC(=O)N(C(=O)Nc2ccc(Cl)cc2Cl)C1 (stereo not given) . Its growth was 102

* * *

Test system: KM12 colon
protocol.notes: NCI-60 one-dose screen, 48 h (100 = growth as untreated, 0 = no growth, -100 = all killed)
cond: 10 µM unless noted
About 83,000 compounds went through this panel and 20% of them were active in at least one assay; those are over-represented in the sample as a whole.
Criterion: growth strictly under 90%. Met: 1.0. Not met: 0.0.

compound	qualitative.label
Cc1ccc(C(=O)Nc2ccc(CN3CCN(C)CC3)c(C(F)(F)F)c2)cc1C#Cc1cncc2ncccc12	1.0
O=CN/N=C/c1ccc(Cl)c([N+](=O)[O-])c1	1.0
COc1cc(OC)c2c(=O)cc(-c3ccccc3)oc2c1	0.0
Nc1cc(N)c2nc(NCCc3ccc(Cl)c(Cl)c3)cnc2c1	1.0
CN1CCN(Cc2ccc(NC(=O)c3ccc(C#Cc4c(N)ncc5ccc(F)cc45)cc3)cc2C(F)(F)F)CC1	1.0
CCCCCCCCCCCCCCCCCC1=NCCN1CS(=O)(=O)O	1.0
COc1cc(N)c2nccc(C)c2c1OC	0.0
C/C=C/C/C=C/[C@H](C)C[C@H](O)[C@@H]1C[C@@H]2O[C@H]2/C=C/[C@H](O)[C@@H](O)/C=C/C[C@H](C)CC(=O)O1	1.0
COc1cc(OC)c(NC(=O)n2ncc3cc(Nc4ncnc5ccccc45)ccc32)cc1Cl	0.0
Cc1ccc(NCc2cn(-c3ccc(C(=O)O)cc3)nc2-c2ccc(C(=O)O)cc2)cc1	0.0

Quick check: growth of "Cc1sc(NC(=O)c2ccc(C(C)(C)C)cc2)c(C(=O)O)c1C" under 90%?
1.0

Quick check: growth of COC1NC(Cl)=C(C#N)C(C#N)(C#N)C1(C)C (stereo unspecified) under 90%?
0.0

Quick check: growth of "N=C(N)c1ccc(-c2ccc(-c3cc(Cl)cc(Cl)c3)s2)cc1" under 90%?
1.0

Quick check: growth of "CCCCN(CCCC)c1ccc(C(=O)O)cc1" under 90%?
0.0

Quick check: growth of "c1cc[c]([Bi]([c]2ccccc2)[c]2ccccc2)cc1" under 90%?
0.0

Quick check: growth of "Cc1ncc(C(=O)Nc2ccc(CN3CCN(C)CC3)c(C(F)(F)F)c2)cc1C#Cc1cnc(NC2CC2)c2ncccc12" under 90%?
1.0

Quick check: growth of "COc1cc(NC(=O)CSc2nc3ccc(Cl)cc3c(=O)n2-c2ccc(F)cc2)cc(OC)c1OC" under 90%?
1.0

Quick check: growth of CC1(C)C(O)NC(Cl)=C(C#N)C1(C#N)C#N (stereo unspecified) under 90%?
0.0

Quick check: growth of "Cc1ccc([C@@H]2C[C@H](O)Cc3ccccc3N2)s1" under 90%?
0.0

Quick check: growth of "Oc1ccccc1/C=N/N=C/c1c(O)ccc2ccccc12" under 90%?
1.0

Quick check: growth of "Oc1ccc(Br)cc1/C=N/NC(=S)NC12CC3CC(CC(C3)C1)C2" under 90%?
1.0

Quick check: growth of CCOC(=O)C1=C(c2ccccc2)NC(=O)NC1CN1C(=O)c2ccccc2C1=O (stereo unspecified) under 90%?
0.0

Quick check: growth of CC1Cc2cc(F)ccc2-n2cccc21 (stereo unspecified) under 90%?
0.0

Quick check: growth of "O=C(Nc1cccc(Cn2c(=O)[nH]c3ccc(Oc4ncccn4)cc3c2=O)c1)c1ccc(Cl)cc1" under 90%?
1.0

Quick check: growth of "C#CCCCCCCC[C@@H]1OC(=O)[C@H]([C@@H](C)CC)NC(=O)[C@@H]([C@@H](C)CC)NC(=O)CC(=O)[C@@H]1C" under 90%?
0.0

Quick check: growth of "COc1ccc(-c2cn3ccnc3c(-c3ccc4ncn(C5CCCCC5)c4c3)n2)cc1" under 90%?
1.0

Quick check: growth of "CC[C@@H](C)/C=C(C)/C=C/C(=O)c1c(O)c(-c2ccc(OC(=O)[C@@]34CC[C@@](C)(C(=O)O3)C4(C)C)cc2)cn(O)c1=O" under 90%?
1.0
